Experimental System: T1, recombinant purified human RGM A (human, UniProt Q96B86 48-424, limits assumed)
T1 construct: Bought recombinant protein (R&D Systems); also called hRGM A; hRGMA
T1 sequence: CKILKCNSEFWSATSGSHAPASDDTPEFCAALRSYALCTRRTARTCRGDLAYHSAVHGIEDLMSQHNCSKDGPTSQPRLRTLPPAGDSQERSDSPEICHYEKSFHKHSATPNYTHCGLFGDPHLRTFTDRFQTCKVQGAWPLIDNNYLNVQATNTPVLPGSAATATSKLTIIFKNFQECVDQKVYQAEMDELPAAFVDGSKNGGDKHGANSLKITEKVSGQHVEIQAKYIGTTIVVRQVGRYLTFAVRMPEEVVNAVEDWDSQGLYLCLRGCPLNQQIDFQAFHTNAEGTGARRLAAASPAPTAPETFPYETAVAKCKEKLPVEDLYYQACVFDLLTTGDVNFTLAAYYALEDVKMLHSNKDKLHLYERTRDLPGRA
Assay Comment: SPR (Biacore 3000), antibody captured by anti-human IgG Fc, hRGMA in solution, 25 °C
Quantity: koff (s⁻¹)
Value expressed in s⁻¹; do not type the unit.

## Input I'd like to know its koff. The binder in question is humanized antibody h5F9.25 (antibody, V domains shown) VH: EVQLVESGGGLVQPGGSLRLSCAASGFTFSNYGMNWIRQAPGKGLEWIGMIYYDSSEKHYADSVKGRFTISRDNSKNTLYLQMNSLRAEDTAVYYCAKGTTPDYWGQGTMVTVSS VL: DVVLTQSPLSLPVTLGQPASISCRSSQSLEYSDGYTFLEWFLQKPGQSPQLLIYEVSNRFSGVPDRFSGSGSGTDFTLKISRVEAEDVGVYYCFQATHDPLTFGQGTKLEIKR
## Output 0.00329

Reference source: patent US20150183871A1
